The following are reported pIC50 results, target or system human DGAT1 (Homo sapiens (Human)).
Scale: negative log10 of molar concentration, which is what pIC50 denotes.

Cc1cc(C(=O)NC(C)(C)C(=O)Nc2nc(-c3ccc(F)cc3)n(Cc3ccccc3)n2)no1 [Example 14-28] ... 5.21
CC(C)(NC(=O)c1cnco1)C(=O)Nc1nc(-c2ccc(F)cc2)n(Cc2ccccc2)n1 [Example 14-24] ... 5.76
CC(C)(NC(=O)c1cccnc1)C(=O)Nc1nc(-c2ccc(F)cc2)c(Oc2ccc(F)cc2)s1 [Example 6-9] ... 6.21
CC(C)(NC(=O)N1CCOCC1)C(=O)Nc1nc(-c2ccc(F)cc2)c(Oc2ccc(F)cc2)s1 [Example 6-2] ... 7.28
CCOc1ccc(C(=O)NC(C)(C)C(=O)Nc2nc(-c3ccccc3)c(Cc3ccccc3)s2)cc1OCC [Example 1-1] ... 7.22
Cc1ccc(-c2cc(NC(=O)[C@@H]3CCCN3C(=O)OC(C)(C)C)nc(-c3ccccc3)c2)cc1 [Example 8-2] ... 6.62

Query for human DGAT1 (Homo sapiens (Human)): what pIC50 does the record show for CC(C)(NC(=O)N1CCCOCC1)C(=O)Nc1nc(C(F)(F)F)c(C(=O)c2ccc(F)cc2)s1 [Example 12-4] ?
5.68

Notebook: pull reported pIC50 for human DGAT1 (Homo sapiens (Human)), entry CC(C)(NC(=O)c1cncs1)C(=O)Nc1nc(-c2ccc(F)cc2)c(Oc2ccc(F)cc2)s1 [Example 6-14]
6.71

Lab note: need pIC50 with human DGAT1 (Homo sapiens (Human)) for entry CC(C)(NC(=O)c1ccc2occc2c1)C(=O)Nc1nc(-c2ccccc2)c(Cc2ccccc2)s1 [Example 1-28] , please look it up.
Sequence (O75907 whole entry): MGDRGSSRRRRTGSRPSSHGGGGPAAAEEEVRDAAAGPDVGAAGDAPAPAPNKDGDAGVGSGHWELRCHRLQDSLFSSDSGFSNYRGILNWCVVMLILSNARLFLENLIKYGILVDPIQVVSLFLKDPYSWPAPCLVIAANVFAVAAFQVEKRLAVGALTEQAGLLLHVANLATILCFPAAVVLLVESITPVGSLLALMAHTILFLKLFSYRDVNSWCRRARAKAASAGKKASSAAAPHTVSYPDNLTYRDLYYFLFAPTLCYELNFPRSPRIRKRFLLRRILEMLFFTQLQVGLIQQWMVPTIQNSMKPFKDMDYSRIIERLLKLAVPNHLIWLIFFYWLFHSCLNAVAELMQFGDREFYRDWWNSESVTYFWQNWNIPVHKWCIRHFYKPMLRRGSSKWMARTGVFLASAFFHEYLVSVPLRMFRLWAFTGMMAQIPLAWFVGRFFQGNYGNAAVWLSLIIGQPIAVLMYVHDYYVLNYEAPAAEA
7.96
